# MEASURED ON: Presenilin-2-comprised γ-secretase (Homo sapiens, UniProt P49810)
# Construct: expressed in transfected cells; host or cells: mouse fibroblasts derived from PS1/PS2 double knockout cells, pCF vector
# ASSAY TEXT: Aβ1-x ELISA in Presenilin-2 transfected PS1/PS2 double knockout mouse fibroblasts
# Type: cell-based
# TEST PARAMETERS: column B; compound concentration of 10 uM; estimated from the inhibition curve; read-out: PS2 percentage inhibition, column B
METRIC: inhibition at 10 µM (%)

1) O=C1NCCCC[C@H]1N(CCCN1C(=O)c2ccccc2C1=O)S(=O)(=O)c1ccc(Cl)cc1
4

1. O=C1NCCCC[C@H]1N(Cc1ccc(Br)cc1)S(=O)(=O)CC(F)(F)F
2. COc1ccc(CN(C2CCCCNC2=O)S(=O)(=O)c2ccc(Cl)cc2)cc1OC (stereo not shown)
I need your help: which of the pair 1 , 2 has higher inhibition at 10 µM? // output: label of the selected item
2
(2: 50%, 1: 19%)

A. CCCCN([C@@H]1CCCCNC1=O)S(=O)(=O)c1ccc(Cl)cc1
B. C/C(=C\c1ccccc1)CN([C@@H]1CCNC1=O)S(=O)(=O)c1ccc(Cl)cc1
C. O=C1NCCCC[C@H]1N(Cc1cnc(N2CCCCC2)s1)S(=O)(=O)c1ccc(Cl)cc1
Sort ascending by inhibition at 10 µM. Please express your ranking as an ordered list of the labels.
B, A, C

====

# MEASURED ON: Presenilin-1-comprised γ-secretase (Homo sapiens, UniProt P49768)
# Construct: expressed in transfected cells; host or cells: mouse fibroblasts derived from PS1/PS2 double knockout cells, pCF vector
# ASSAY TEXT: Aβ1-x ELISA in Presenilin-1 transfected PS1/PS2 double knockout mouse fibroblasts
# Type: cell-based
# TEST PARAMETERS: column C; Aβ1-x, Presenilin-1 transfected cells, overnight; read-out: PS1 EC50 (nM) C
METRIC: EC50 (nM)

Below: 5 molecules and their reported EC50.
1) Cn1nnc2cc(CN([C@@H]3CCCCNC3=O)S(=O)(=O)c3ccc(Cl)cc3)ccc21
42
2) C[C@H](NC(=O)[C@@H](O)c1cc(F)cc(F)c1)C(=O)N[C@H](C(=O)NCC1CN(c2ccccc2)CCO1)c1ccccc1 (stereo partly drawn)
17.5
3) O=C1NCCCC[C@H]1N(Cc1ccc(-c2nccs2)cc1)S(=O)(=O)c1ccc(Cl)cc1
74
4) C[C@H](NC(=O)[C@@H](O)c1cc(F)cc(F)c1)C(=O)Nc1cc(C(C)(C)c2ccccc2)n[nH]1
19
5) Cn1nnc2cc(CN([C@@H]3CCCCNC3=O)S(=O)(=O)c3ccc(Cl)nc3)ccc21
114

1. O=C1NCCCC[C@H]1N(Cc1ccc(Br)cc1)S(=O)(=O)c1ccc(Cl)cc1
2. Cn1nnc2cc(CN([C@@H]3CCCCNC3=O)S(=O)(=O)c3ccc(Cl)s3)ccc21
Just tell me: smaller EC50 value, 1 or 2 ? // output: label of the selected item
2

I. O=C1NCCCC[C@H]1N(Cc1cc2ccccc2o1)S(=O)(=O)c1ccc(Cl)cc1
II. COc1ccc(CN([C@@H]2CCCCNC2=O)S(=O)(=O)c2ccc(Cl)cc2)cc1OC
Just tell me: smaller EC50 value, I or II ? // output: label of the selected item
I

P. CCS(=O)(=O)CC[C@@H](C)N(c1cc(Cl)ccc1Cl)S(=O)(=O)c1ccc(Cl)cc1
Q. O=C1NCCCC[C@H]1N(Cc1ccc(-c2ncon2)cc1)S(=O)(=O)c1ccc(Cl)cc1
R. O=C1NCCCC[C@H]1N(Cc1ccc(Br)cc1)S(=O)(=O)c1ccc(Cl)nc1
Sort ascending by EC50. Please express your ranking as an ordered list of the labels.
Q, R, P
(Q: 26 nM, R: 87 nM, P: 598 nM)
